Target: SH3 domain (Gallus gallus)
Construct: Residues 81 to 140 of chicken c-SRC were cloned; modified TrpLE leader (Met to Leu, Cys to Ala) (N, cleaved yes); His9 within the C-terminal region of the TrpLE leader (N, cleaved yes); made in house; host or cells: E. coli in M9 medium with (15NH4)2SO4, plasmid pMMHb-SRC SH3
Assay: Direct tryptophan fluorescence spectroscopy titration
Type: binding, chicken
Settings: 1 μM SH3, 15 mM NaCl and 10 mM NaHPO4, pH 7.2; Scatchard analysis
pKd: −log10 of the molar value. Ends that are not written are not given here.
metric_name: pKd

>>> print(df.to_string())
          substance             target_of_assay  metric_name  reported_value
0  YGGRELPPLPRF-NH2  SH3 domain (Gallus gallus)          pKd            5.22

---

Target: (D)-Src SH3 domain (Gallus gallus, UniProt P00523)
Experiment: Screening (selection rounds) of the phage library with the (D)-SH3 domain
Type: binding, chicken
Conditions: 4 rounds; 16 hrs phage incubation; washes 3', 5', 10' in rounds 2-4
Criterion: Number of Isolates, low stringency meeting or surpassing 2. Met: TRUE. Not met: FALSE.

In [3]: df
Out[3]:
                                   sequence  label_value
0  CAYGFKLGLIKC [clone has alanine to arginine substitution directly amino terminal to the insert]        FALSE
1                              CLMGLRLGLLPC         TRUE
2                              CKRFVWRGQALC         TRUE
3                              CWYLGYWPGQEC         TRUE
